# testSummary: Plasma pharmacokinetics of irinotecan and SN-38 (reversed-phase HPLC)
# experimentalConditions: human, plasma, iv, Irinotecan Cmax, dose level V (irinotecan 350, raltitrexed 2.6 mg m-2); cycle 1; n=3; estimated at the end of i.v. infusion
Where a name gives a salt, the structure may show the parent alone.
metricName: Cmax (ng/mL)
All answers are understood in ng/mL, so give the number only.

Indicate the recorded Cmax value for this compound: CCc1c2c(nc3ccc(OC(=O)N4CCC(N5CCCCC5)CC4)cc13)-c1cc3c(c(=O)n1C2)COC(=O)[C@]3(O)CC [irinotecan, Irinotecan hydrochloride]
4890

----------
# testSummary: Plasma pharmacokinetics of raltitrexed (radioimmunoassay)
# Type: in vivo
# experimentalConditions: human, intravenous, dose level VI (irinotecan 350, raltitrexed 3.0 mg m-2), cycle 1, n=6
metricName: Cmax (ng/mL)
All answers are understood in ng/mL, so give the number only.

Indicate the recorded Cmax value for this compound: Cc1nc2ccc(CN(C)c3ccc(C(=O)N[C@@H](CCC(=O)O)C(=O)O)s3)cc2c(=O)[nH]1
772
